# credit: ChEMBL document CHEMBL3526009

# experiment summary: AUC ( 0 to t) in wild-type FVB mouse at 2 mg/kg, po
# Type: ADME, organism-based, Plasma
# Parameters: dose 2 mg/kg, route oral
quantity: AUC(0-t) (µM·h)
Number in µM·h, nothing else.

Lookup: Find the recorded AUC(0-t) belonging to O=c1c(-c2ccc(O)cc2)coc2cc(O)cc(O)c12 and report it.
Found: 0.36

----------
# experiment summary: AUC ( 0 to t) in wild-type FVB mouse at 20 mg/kg, ip
# Assay type: ADME, organism-based
# Set-up: dose 20 mg/kg, route intraperitoneal
# test conditions: plasma
quantity: AUC(0-t) (µM·h)
Write down the numeric answer in µM·h and omit the unit.

Lookup: Would you mind telling me what AUC(0-t) value was observed for O=c1c(-c2ccc(O)cc2)coc2cc(O)cc(O)c12 ?
Found: 10

----------
# experiment summary: Elimination rate constant in wild-type FVB mouse at 20 mg/kg, ip
# Format: ADME, organism-based
# Parameters: dose 20 mg/kg, route intraperitoneal
# test conditions: in vivo
quantity: k el

Lookup: Bench note: what k el did O=c1c(-c2ccc(O)cc2)coc2cc(O)cc(O)c12 [GENISTEIN] show?
Found: 6.39e-05 s⁻¹
